Kd for assorted binders
target: T1, Biotin-conjugated ^MBPPBD (immobilised ligand of BLI) (human, UniProt P53350 345-603, biotin (Gly-Gly-Gly-Gly-Biotin conjugated to the C-terminal PLPETG peptide by sortase A)); test: BLI; biotin-conjugated ^MBPPBD immobilised on streptavidin sensors, CENP-U variants as analyte; 25 °C, 20 mM HEPES pH 7.5, 2.5% glycerol, 300 mM NaCl, 0.1 mM TCEP, 0.3 g/L BSA, 0.05% Tween20; KD from koff/kon of the global fit; details: both partners purified
T1 construct: PLK1, human, residues 345-603 (Polo-box domain construct); As m1 with a C-terminal PLPETG peptide used for biotin labelling; held on streptavidin sensors; also called immobilized PBD; source: E. coli BL21 (DE3), purified (HisTALON, SEC), biotin-labelled with sortase A; not shown: MBP, N-terminal, kept; PLPETG peptide conjugated with Gly-Gly-Gly-Gly-Biotin, C-terminal, kept
T1 sequence (P53350 345-603): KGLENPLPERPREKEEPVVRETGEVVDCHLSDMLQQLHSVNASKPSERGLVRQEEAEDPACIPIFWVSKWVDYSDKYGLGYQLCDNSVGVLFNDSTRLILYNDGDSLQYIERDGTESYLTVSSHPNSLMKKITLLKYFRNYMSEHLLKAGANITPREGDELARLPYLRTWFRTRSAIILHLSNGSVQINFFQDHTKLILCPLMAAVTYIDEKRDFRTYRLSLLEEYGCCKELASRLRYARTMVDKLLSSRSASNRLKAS
Non-standard residues stand in square brackets, D forms with d. No end group written: not given here. pT = C[C@@H](OP(=O)(O)O)[C@H](N)C(=O)O; MBP = maltose-binding protein
Unit nM implied. Number only.

{"BINDER": "LGENEKDEETYETADPPLHS[pT]AIYAD (domain or fragment, human, UniProt Q71F23 58-83, looked up, also: N-terminal MBP fusion protein, CENP-U (PBIP1), human, residues 58-83 (Motif 1); source: E. coli BL21 (DE3), purified; not shown: MBP, N-terminal, kept) [^MBPCENP-U^58-83/F71A/pT78]", "EXPERIMENTAL ENDPOINT": "Kd", "NUMERIC RESULT": 88}

// switching to the query binder
Q: Output measured Kd for this item: {6xHis-MBP-TEV}-LGENEKDEETYETFDPPLHSTAIYAD (domain or fragment, human, UniProt Q71F23 58-83, looked up, CENP-U (PBIP1), human, residues 58-83 (Motif 1); also called Motif 1; unphosphorylated Motif 1; source: E. coli BL21 (DE3), purified (HisTALON, Resource Q, SEC); not shown: MBP, N-terminal, kept) [^MBPCENP-U^58-83 (6xHis-MBP-TEV-CENP-U^58-83), unphosphorylated]
Ans: 10000
